molecular target: MMP-1 (Homo sapiens, UniProt P03956); construct: made in house; host or cells: MMP-1-transfected HT-1080 cells (spent media); assay: MMP-1 inhibition (in vitro Ki); format: biochemical; settings: Table 9; read-out: MMP-1 Ki (IC-50)
Sequence (P03956 100-469, species assumed): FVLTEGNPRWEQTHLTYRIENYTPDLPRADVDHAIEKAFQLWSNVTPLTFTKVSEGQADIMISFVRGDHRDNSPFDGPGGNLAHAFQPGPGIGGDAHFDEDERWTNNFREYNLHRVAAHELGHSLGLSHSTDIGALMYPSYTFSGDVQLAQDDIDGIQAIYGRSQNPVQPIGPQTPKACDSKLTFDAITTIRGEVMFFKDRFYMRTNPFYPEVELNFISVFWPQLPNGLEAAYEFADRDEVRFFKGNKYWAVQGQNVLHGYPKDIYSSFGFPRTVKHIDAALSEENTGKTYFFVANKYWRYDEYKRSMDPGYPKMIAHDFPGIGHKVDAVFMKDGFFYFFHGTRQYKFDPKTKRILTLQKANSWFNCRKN
pKi: −log10 of the molar value.
quantity.name: pKi

Reference set (3 entries):
>>> reported_value("CCCC(=O)c1ccc(C2CCN(S(=O)(=O)C3(C(=O)NO)CCOCC3)CC2)nc1")
5.74
>>> reported_value("O=C(NO)C1(S(=O)(=O)N2CCC(c3ccc(C(F)(F)CCC(F)(F)F)cn3)CC2)CCOCC1")
5.28
>>> reported_value("CCC(F)(F)c1ccc(C2CCN(S(=O)(=O)C3(C(=O)NO)CCOCC3)CC2)nc1")
6.19

I = O=C(NCCCCC1CCN(S(=O)(=O)C2(C(=O)NO)CCOCC2)CC1)C(=O)c1cccs1
II = CCc1nc(-c2ccc(N3CCN(S(=O)(=O)C4(C(=O)NO)CCOCC4)CC3)cc2)no1
Which record shows the lower pKi: the first, I , or the second, II ? Returns: label corresponding to the selected item. II

* * *

target: MMP-9 (Homo sapiens, UniProt P14780); construct: made in house; host or cells: MMP-9-transfected HT1080 cells (spent media); assay: In vitro MMP inhibition, Ki determination (fluorogenic substrate II); format: biochemical; settings: value not in parenthesis
Sequence (P14780 107-707 limits assumed): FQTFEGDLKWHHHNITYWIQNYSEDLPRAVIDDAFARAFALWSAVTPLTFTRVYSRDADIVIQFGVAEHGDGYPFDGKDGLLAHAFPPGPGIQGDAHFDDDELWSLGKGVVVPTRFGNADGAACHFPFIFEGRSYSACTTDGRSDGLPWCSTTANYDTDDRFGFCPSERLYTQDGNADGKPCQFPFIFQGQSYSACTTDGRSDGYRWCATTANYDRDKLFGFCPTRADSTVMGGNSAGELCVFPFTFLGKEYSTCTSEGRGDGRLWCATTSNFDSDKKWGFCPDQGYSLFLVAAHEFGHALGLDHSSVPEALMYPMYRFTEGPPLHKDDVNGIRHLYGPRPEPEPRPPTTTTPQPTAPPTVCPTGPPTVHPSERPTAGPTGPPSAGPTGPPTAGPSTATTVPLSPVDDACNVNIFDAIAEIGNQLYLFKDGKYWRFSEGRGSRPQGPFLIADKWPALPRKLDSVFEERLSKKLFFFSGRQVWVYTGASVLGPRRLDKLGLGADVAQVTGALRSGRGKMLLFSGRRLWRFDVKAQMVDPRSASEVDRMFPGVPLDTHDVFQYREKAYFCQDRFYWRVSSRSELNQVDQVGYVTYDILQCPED
pKi: −log10 of the molar value.
quantity.name: pKi

>>> reported_value("CCCCC(=O)c1ccc(N2CCN(S(=O)(=O)C3(C(=O)NO)CCN(CCOC)CC3)CC2)cc1 [Example 177]")
7.73
>>> reported_value("CCOCCSc1ccc(N2CCN(S(=O)(=O)C3(C(=O)NO)CCOCC3)CC2)cc1 [Example 234]")
7.47
>>> reported_value("O=C(NO)C1(S(=O)(=O)N2CCN(c3ccc(OCC(F)(F)C(F)(F)F)cc3)CC2)CCOCC1 [Example 212]")
8.54
>>> reported_value("CCCCOc1ccc(N2CCN(S(=O)(=O)C3(C(=O)NO)CCSCC3)CC2)cc1 [Example 232]")
8.64

P = CCCCOc1ccc(N2CCN(S(=O)(=O)C3(C(=O)NO)CCN(CCOC)CC3)CC2)cn1 [Example 164]
Q = C#CCOC(=O)N1CCC(C(=O)NO)(S(=O)(=O)N2CCN(c3ccc(OCCCC)cc3)CC2)CC1 [Example 98]
R = COCCN1CCC(C(=O)NO)(S(=O)(=O)N2CCN(c3nc4ccccc4o3)CC2)CC1 [Example 196]
S = COCCSc1ccc(N2CCN(S(=O)(=O)C3(C(=O)NO)CCOCC3)CC2)cc1 [Example 227]
Ranking field: pKi; order: falling. Write out the labels following the order that was asked for. Q, P, S, R
(Q: 8.91, P: 8.12, S: 7.76, R: 7.10)

I = CCCCOc1ccc(N2CCN(S(=O)(=O)C3(C(=O)NO)CCN(Cc4nccn4C)CC3)CC2)cc1 [Example 245]
II = CCCCOc1ccc(N2CCN(S(=O)(=O)C3(C(=O)NO)CCN(c4ccc(C)cn4)CC3)CC2)cc1 [Example 125]
Which item exceeds the other in pKi, I or II ? Let me know the label of the one you choose. I
(I: 9.23, II: 8.14)

I = CCCCOc1ccc(N2CCN(S(=O)(=O)C3(C(=O)NO)CCN(C(=O)NC(C)(C)C)CC3)CC2)cc1 [Example 240]
II = CC(C)COc1ccc(N2CCN(S(=O)(=O)C3(C(=O)NO)CCOCC3)CC2)cc1Cl [Example 79]
III = O=C(NO)C1(S(=O)(=O)N2CCN(c3ccc(SC(F)(F)F)cc3)CC2)CCOCC1 [Example 170]
Please list these in order of increasing pKi. Thank you! A complete answer lists every label in the requested sequence. II, III, I

* * *

target: MMP-14 (Homo sapiens, UniProt P50281); construct: The catalytic domain enzyme was expressed in E. coli inclusion bodies, solubilized in urea; made in house; assay: In vitro MMP inhibition, Ki determination (fluorogenic substrate II); type: biochemical; conditions: value not in parenthesis; read-out: MMP-14 Ki
quantity.name: Ki (µM)

Study these solved cases before continuing.
>>> reported_value("CC(C)CCc1ccc(N2CCN(S(=O)(=O)C3(C(=O)NO)CCOCC3)CC2)nc1 [Example 133]")
2.12
>>> reported_value("O=C(NO)C1(S(=O)(=O)N2CCN(c3ccc(Cl)nn3)CC2)CCOCC1 [Example 198]")
1.28

1 = CCCCOc1ccc(N2CCN(S(=O)(=O)C3(C(=O)NO)CCN(C(=O)OCCF)CC3)CC2)cc1 [Example 113]
2 = O=C(NO)C1(S(=O)(=O)N2CCN(c3ccc(OCCCC(F)(F)F)cc3)CC2)CCN(c2cnccn2)CC1 [Example 112]
3 = CCCCOc1ccc(N2CCN(S(=O)(=O)C3(C(=O)NO)CCN(CCCC(F)(F)F)CC3)CC2)cc1 [Example 238]
Arrange items by their Ki values in increasing order. // list labels; follow requested order 2, 1, 3
(2: 1.17 µM, 1: 2.33 µM, 3: 6.04 µM)

* * *

Target: MMP-2 (Homo sapiens, UniProt P08253)
Construct: made in house; host or cells: MMP-2-transfected p2AHT2 cells
Sequence (P08253 110-660): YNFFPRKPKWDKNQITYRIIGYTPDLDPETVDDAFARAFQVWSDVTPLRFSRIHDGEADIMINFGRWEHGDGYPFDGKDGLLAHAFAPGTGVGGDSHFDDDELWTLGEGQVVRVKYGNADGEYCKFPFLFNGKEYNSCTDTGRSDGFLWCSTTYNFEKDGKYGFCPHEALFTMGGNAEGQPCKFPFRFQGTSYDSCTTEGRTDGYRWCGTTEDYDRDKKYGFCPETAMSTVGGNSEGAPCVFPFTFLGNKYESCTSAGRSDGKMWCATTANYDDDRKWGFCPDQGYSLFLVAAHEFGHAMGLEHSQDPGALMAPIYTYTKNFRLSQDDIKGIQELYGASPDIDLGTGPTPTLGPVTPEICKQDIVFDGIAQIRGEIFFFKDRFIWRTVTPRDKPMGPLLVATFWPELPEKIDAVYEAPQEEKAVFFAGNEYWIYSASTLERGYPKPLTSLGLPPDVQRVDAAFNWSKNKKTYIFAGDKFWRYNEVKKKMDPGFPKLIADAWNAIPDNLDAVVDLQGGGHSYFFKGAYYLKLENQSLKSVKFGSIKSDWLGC
Assay: In vitro MMP inhibition, Ki determination (fluorogenic substrate II)
Format: biochemical
Settings: value outside parentheses; read-out: MMP-2 Ki
pKi: −log10 of the molar value.
quantity.name: pKi

>>> reported_value("O=C(NO)C1(S(=O)(=O)N2CCC(c3ccc(-c4ccc(F)cc4F)cn3)CC2)CCOCC1")
8.20

a = O=C(NO)C1(S(=O)(=O)N2CCN(c3ccc(SC(F)(F)F)cc3)CC2)CCS(=O)(=O)CC1
b = CCCCOc1ccc(N2CCN(S(=O)(=O)C3(C(=O)NO)CCN(C(=O)CCCC)CC3)CC2)cc1
c = O=C(O)c1ccc(N2CCN(S(=O)(=O)C3(C(=O)NO)CCOCC3)CC2)cc1
Arrange the 3 entries by pKi so the values rise. Output the labels ranked as instructed. c, a, b

* * *

target: MMP-9 (Homo sapiens); construct: made in house; host or cells: MMP-9-transfected HT1080 cells (spent media); experiment: In vitro MMP inhibition, Ki determination (fluorogenic substrate II); type: biochemical; conditions: value not in parenthesis
quantity.name: Ki (nM)

Example compounds with recorded Ki:
>>> reported_value("CCCCc1cnc(N2CCN(S(=O)(=O)C3(C(=O)NO)CCOCC3)CC2)nc1")
0.74
>>> reported_value("CCC(C)Cc1ccc(N2CCN(S(=O)(=O)C3(C(=O)NO)CCN(CCOC)CC3)CC2)cc1 (stereo not drawn)")
3.76
>>> reported_value("COCCN1CCC(C(=O)NO)(S(=O)(=O)N2CCN(c3ccc(OCC(F)(F)C(F)(F)F)cc3)CC2)CC1")
2.31

A = O=C(NO)C1(S(=O)(=O)N2CCN(c3ccc(OCCN4CCCC4)cc3)CC2)CCOCC1
B = CC(C)(C)N1CCC(C(=O)NO)(S(=O)(=O)N2CCN(c3ccc(OCCCC(F)(F)F)cc3F)CC2)CC1
When their Ki values are compared, which is larger, A or B ? Your answer should be the label attached to the chosen record. A
(A: 402 nM, B: 49.5 nM)

* * *

Biological target: MMP-14 (Homo sapiens, UniProt P50281)
Construct: The catalytic domain enzyme was expressed in E. coli inclusion bodies, solubilized in urea; made in house
Assay: In vitro MMP inhibition, Ki determination (fluorogenic substrate II)
Type: biochemical
Conditions: value not in parenthesis; read-out: MMP-14 Ki
Procedure: Several hydroxamic acids and salts thereof were analyzed in in vitro assays to determine their ability to inhibit the MMP cleavage of peptide substrates. […] and IC50 constants were calculated from the assayed hydroxamic acid-MMP interactions. […] The assays from which the Ki determinations were made were performed as follows. […] In the absence of MMP inhibitory activity, substrate II was cleaved at the Gly-Leu bond resulting in an increase of relative fluorescence. […]
pKi: −log10 of the molar value.
quantity.name: pKi

>>> reported_value("CCCCCc1cnc(N2CCN(S(=O)(=O)C3(C(=O)NO)CCOCC3)CC2)s1")
6.10

A = O=C(NO)C1(S(=O)(=O)N2CCN(c3ccc(OCCCC(F)(F)F)cn3)CC2)CCOCC1
B = CCCCOc1ccc(N2CCN(S(=O)(=O)C3(C(=O)NO)CCN(c4ccc(OC)nc4)CC3)CC2)cc1
For the pair A and B , which member has the lower pKi number? Lab log: write the label of the selected item as the result. B

Just for reference, patent US20050209278A1 is where these values come from.
